# Experiment: Drug uptake in rat brain at 10 mg/kg, ip after 30 mins
# Assay type: ADME, organism-based
# Parameters: dose 10 mg/kg, route intraperitoneal
# Experimental Context: read-out: Drug uptake
Endpoint Label: concentration at 0.5 h (nM)
Number only, in nM; omit the unit.

Please review the entries below; each comes with its answer.
* CC[C@H](C)COc1ccc([C@H](CN)NC(=O)[C@@H](C)c2ccccc2)cc1 | 340
* COc1ccc([C@H](CO)NC(=O)[C@@H](C)c2ccccc2)cc1 | 450
* CC(C)COc1ccc([C@H](CO)NC(=O)[C@H]2C[C@@H]2c2cccs2)cc1 | 6850

From here, focus on the item given below.
input: # query: concentration at 0.5 h of entry CC[C@H](C)COc1ccc([C@H](CO)NC(=O)[C@H]2C[C@@H]2c2cccs2)cc1
output: 2510
